As an illustration, consider measured Ki for compounds on human norepinephrine transporter (hNET) (Homo sapiens).
Sequence (P23975 whole entry): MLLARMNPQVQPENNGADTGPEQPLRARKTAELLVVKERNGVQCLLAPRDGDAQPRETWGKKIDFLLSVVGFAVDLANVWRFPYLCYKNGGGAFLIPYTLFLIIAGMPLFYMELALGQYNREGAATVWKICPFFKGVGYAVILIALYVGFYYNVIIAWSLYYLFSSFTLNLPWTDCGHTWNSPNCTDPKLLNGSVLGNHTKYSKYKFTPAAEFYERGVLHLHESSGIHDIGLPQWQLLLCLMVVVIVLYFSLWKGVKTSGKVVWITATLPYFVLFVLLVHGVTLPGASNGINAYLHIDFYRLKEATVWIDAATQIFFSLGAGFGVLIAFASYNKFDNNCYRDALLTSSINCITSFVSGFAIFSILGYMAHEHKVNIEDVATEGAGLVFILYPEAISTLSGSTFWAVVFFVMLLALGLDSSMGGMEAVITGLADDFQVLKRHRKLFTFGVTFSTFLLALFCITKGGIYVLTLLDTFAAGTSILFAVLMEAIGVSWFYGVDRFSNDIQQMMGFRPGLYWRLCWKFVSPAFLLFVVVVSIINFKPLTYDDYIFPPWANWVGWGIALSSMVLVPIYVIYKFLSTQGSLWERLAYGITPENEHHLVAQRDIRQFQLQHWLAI
Counter-ions that a name gives are not always drawn.
The number alone won't do; follow it with the unit.

{"columns": ["compound", "Ki"],
 "data": [
  ["Fc1ccc2c(OC3CCNCC3)nn(-c3ccccc3F)c2c1 [Example 63, hydrochloride]", "39.5 nM"],
  ["Fc1ccccc1-n1nc(OCC2CCCNC2)c2cc(Cl)ccc21 (centres unmarked) [Example 73, hydrochloride]", "29.3 nM"],
  ["Fc1ccccc1-n1nc(OCC2CCCNC2)c2ccccc21 (centres unmarked) [Example 4, hydrochloride]", "3 nM"],
  ["Fc1ccc(F)c(-n2nc(OC3CCNCC3)c3ccccc32)c1 [Example 27, hydrochloride]", "6.34 nM"],
  ["Fc1cccc(F)c1-n1nc(OC2CCNCC2)c2c(F)cccc21 [Example 109, hydrochloride]", "46.2 nM"]
]}

Form field, Ki with human norepinephrine transporter (hNET) (Homo sapiens), item c1ccc(-n2nc(OC[C@@H]3CCCNC3)c3ccccc32)cc1 [Example 18, hydrochloride] : 95.5 nM

Field Ki (system: human norepinephrine transporter (hNET) (Homo sapiens)) for entry Cc1cccc2c1c(OC1CCNCC1)nn2-c1ccccc1 [Example 62, hydrochloride] = 495 nM

Reported Ki (human norepinephrine transporter (hNET) (Homo sapiens)) for entry Fc1cccc(F)c1-n1nc(OC[C@H]2CCCNC2)c2ccccc21 [Example 25, maleate] is 3.2 nM

* * *

# study-system: human serotonin transporter (hSERT) (Homo sapiens)
# Sequence (P31645 whole entry): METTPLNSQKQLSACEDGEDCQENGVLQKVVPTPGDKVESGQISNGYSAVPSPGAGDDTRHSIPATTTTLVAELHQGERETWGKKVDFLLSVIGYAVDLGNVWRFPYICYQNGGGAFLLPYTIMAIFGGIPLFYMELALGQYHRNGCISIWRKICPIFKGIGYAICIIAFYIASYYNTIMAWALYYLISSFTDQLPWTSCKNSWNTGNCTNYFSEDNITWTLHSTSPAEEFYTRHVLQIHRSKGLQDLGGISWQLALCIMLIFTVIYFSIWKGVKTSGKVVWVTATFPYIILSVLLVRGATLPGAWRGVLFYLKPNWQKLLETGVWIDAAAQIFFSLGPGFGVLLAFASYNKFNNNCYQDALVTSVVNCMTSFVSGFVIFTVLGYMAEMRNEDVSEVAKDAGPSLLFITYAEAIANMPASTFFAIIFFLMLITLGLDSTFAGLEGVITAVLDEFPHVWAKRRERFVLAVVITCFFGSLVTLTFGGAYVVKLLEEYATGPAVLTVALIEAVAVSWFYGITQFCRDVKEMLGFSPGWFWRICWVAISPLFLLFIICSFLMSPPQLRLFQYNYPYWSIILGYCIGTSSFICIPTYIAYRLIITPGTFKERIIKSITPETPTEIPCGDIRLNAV
Structures can show the parent of a compound that is named as a salt.
measured-property: pKi
Scale note: pKi = -log10(concentration in M).

Known pKi results, listed for orientation:
{"columns": ["compound", "pKi"],
 "data": [
  ["Fc1cccc(-n2nc(OC[C@H]3CCCNC3)c3cc(F)ccc32)c1 [Example 78, hydrochloride]", 7.40],
  ["Fc1ccc2c(c1)c(OC1CCNCC1)nn2-c1ccccc1F [Example 51, hydrochloride]", 7.27],
  ["Fc1ccc(-n2nc(OC3CCNCC3)c3cc(F)ccc32)cc1 [Example 79, hydrochloride]", 7.62],
  ["Fc1ccc(-n2nc(OC[C@H]3CCCNC3)c3ccccc32)cc1F [Example 33, hydrochloride]", 6.70]
]}

Briefly, pKi measured for Fc1ccccc1-n1nc(OC2CCNCC2)c2cccc(C(F)(F)F)c21 [Example 65, hydrochloride] : 7.09

Form field pKi, entry c1ccc(-n2nc(OC[C@H]3CCCNC3)c3ccccc32)cc1 [Example 19, hydrochloride] : 6.31

Data point: Fc1ccc2c(c1)c(OCC1CCCNC1)nn2-c1ccc(F)c(F)c1 (racemic) [Example 96, hydrochloride] ; pKi = 6.76

What the record says about Fc1cccc(F)c1-n1nc(OC2CCNCC2)c2c(F)cccc21 [Example 109, hydrochloride] : pKi is 6.55

The compound listed as Fc1ccc(-n2nc(OC[C@H]3CCNC3)c3ccccc32)cc1F [Example 35, hydrochloride] has a reported pKi of 7.08

Value of measured pKi for the entry Cc1cccc2c1c(OC1CCNCC1)nn2-c1ccccc1 [Example 62, hydrochloride] : 6.50

Looking up Fc1cccc(F)c1-n1nc(OC[C@H]2CCCNC2)c2ccccc21 [Example 25, maleate] , I see its pKi listed as 6.17

The recorded pKi for entry Fc1ccccc1-n1nc(OC2CCNCC2)c2ccccc21 [Example 1, hydrochloride] equals 7.29
